- assayed_target: T1, recombinant human 4R0N tau (human, UniProt P10636 2-758)
- T1 construct: also called P10636-6
- T1 sequence (P10636 other isoform, or with tags, fused parts or gaps limits assumed): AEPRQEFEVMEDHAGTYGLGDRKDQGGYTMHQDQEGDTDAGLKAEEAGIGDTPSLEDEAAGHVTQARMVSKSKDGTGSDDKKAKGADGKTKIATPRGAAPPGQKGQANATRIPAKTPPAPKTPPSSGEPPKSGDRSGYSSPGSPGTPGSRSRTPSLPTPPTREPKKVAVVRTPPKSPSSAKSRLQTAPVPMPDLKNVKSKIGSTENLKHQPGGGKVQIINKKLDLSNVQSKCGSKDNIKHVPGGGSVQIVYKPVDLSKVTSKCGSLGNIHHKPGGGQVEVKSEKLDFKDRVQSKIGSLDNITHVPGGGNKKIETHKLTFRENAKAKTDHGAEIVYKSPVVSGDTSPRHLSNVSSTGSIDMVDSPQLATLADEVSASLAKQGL
- method_description: SPR, Biacore T200, antibody captured on anti-human Fc, tau as analyte, 1:1 fit
Kindly apply the following: 1 if Kd is less than 0.7 nM, 0 in every other case.

binder | class
hu3D6VHv1bA11/L2-DIM3 (antibody, V domains shown, Humanized antibody with human Fc) VH: EVQLVQSGAEVVKPGATVKISCKASGFNIKDYYLHWVRQRPGQGLEWIGWIDPENGDTVYDPKFQGRATITADTSTDTAYLQLGSLTSEDTAVYFCSTLDFWGQGTLVTVSS VL: DVVMTQSPLSLPVTLGQPASISCKSSQSLLDSDGKTYLNWLQQRPGQSPRRLIYLVGKGDSGVPDRFSGSGSGTDFTLKISRVEAEDVGVYYCWQGTHFPYTFGGGTKLEIK | 1
hu3D6VHv1bA11/L2-DIM19 (antibody, V domains shown, Humanized antibody with human Fc) VH: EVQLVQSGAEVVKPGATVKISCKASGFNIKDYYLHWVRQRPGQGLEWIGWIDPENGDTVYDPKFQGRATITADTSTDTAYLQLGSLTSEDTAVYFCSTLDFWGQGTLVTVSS VL: DVVMTQSPLSLPVTLGQPASISCKSSQSLLDSDGKTYLNWLQQRPGQSPRRLIYEVSKGDSGVPDRFSGSGSGTDFTLKISRVEAEDVGVYYCWQGTHFPYTFGGGTKLEIK | 0
hu3D6VHv1bA11/L2-DIM17 (antibody, V domains shown, Humanized antibody with human Fc) VH: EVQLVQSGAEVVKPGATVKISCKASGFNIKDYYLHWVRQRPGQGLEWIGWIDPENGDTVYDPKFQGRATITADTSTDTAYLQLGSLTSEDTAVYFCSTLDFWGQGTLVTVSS VL: DVVMTQSPLSLPVTLGQPASISCKSSQSLLDSDGKTYLNWLQQRPGQSPRRLIYDVSKGDSGVPDRFSGSGSGTDFTLKISRVEAEDVGVYYCWQGTHFPYTFGGGTKLEIK | 0
hu3D6VHv1bA11/L2-DIM7 (antibody, V domains shown, Humanized antibody with human Fc; also called hu3D6VHv1bA11 / hu3D6VLv2 L54G) VH: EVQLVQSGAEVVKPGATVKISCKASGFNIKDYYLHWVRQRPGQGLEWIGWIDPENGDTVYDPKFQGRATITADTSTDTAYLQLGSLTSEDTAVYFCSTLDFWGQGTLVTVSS VL: DVVMTQSPLSLPVTLGQPASISCKSSQSLLDSDGKTYLNWLLQRPGQSPRRLIYLVSKGDSGVPDRFSGSGSGTDFTLKISRVEAEDVGVYYCWQGTHFPYTFGGGTKLEIK | 1

Cited source for all entries: patent US20200369755A1
